PROTOCOL_DETAILS: Therapeutic index, ratio of IC50 for human fibroblasts to IC50 for Chloroquine-sensitive Plasmodium falciparum D10
EXPERIMENTAL_CONDITIONS: read-out: Ratio IC50
PARAMETER_MEASURED: selectivity ratio
Hey, just send me the number, nothing else.

Inquiry: Give a short answer stating reported selectivity ratio for CCCCNC(=O)[C@H](CC(C)C)NC(=O)[C@@H](NC(=O)c1ccc(Oc2ccc(C(=O)N[C@@H](C)C(=O)NCCCNc3ccnc4cc(Cl)ccc34)cc2)cc1)[C@@H](C)CC .
Reply text: 450

---

PROTOCOL_DETAILS: Therapeutic index, ratio of IC50 for HMEC1 cells to IC50 for Chloroquine-sensitive Plasmodium falciparum D10
Assay type: cell-based
EXPERIMENTAL_CONDITIONS: human; read-out: Ratio IC50
PARAMETER_MEASURED: selectivity ratio
Could you keep your reply to the number by itself?

Inquiry: Supply selectivity ratio value. Item: CCCCNC(=O)[C@H](CC(C)C)NC(=O)[C@@H](NC(=O)c1ccc(Oc2ccc(C(=O)N[C@@H](C)C(=O)NCCCNc3ccnc4cc(Cl)ccc34)cc2)cc1)[C@@H](C)CC
Reply text: 450

---

PROTOCOL_DETAILS: Cytotoxicity against human HMEC1 cells assessed as growth inhibition after 72 hrs by MTT assay
Assay type: cell-based
EXPERIMENTAL_CONDITIONS: HMEC-1, 72 h
PARAMETER_MEASURED: IC50 (µM)
Reply with just the number (in µM).

Inquiry: Supply IC50 value. Item: CCCCNC(=O)[C@H](CC(C)C)NC(=O)[C@@H](NC(=O)c1ccc(Oc2ccc(C(=O)N[C@@H](C)C(=O)NCCCNc3ccnc4cc(Cl)ccc34)cc2)cc1)[C@@H](C)CC
Reply text: 17.6

---

PROTOCOL_DETAILS: Inhibition of beta-haematin formation after 18 hrs by spectrophotometric analysis relative to haematin
Format: physicochemical
PARAMETER_MEASURED: IC50 (equiv)
Field: numeric (equiv). Do not append units.

>>> observed("CCCCNC(=O)[C@H](CC(C)C)NC(=O)[C@@H](NC(=O)c1ccc(Oc2ccc(C(=O)N[C@@H](C)C(=O)NCCCNc3ccnc4cc(Cl)ccc34)cc2)cc1)[C@@H](C)CC")
0.79

Then there is this molecule:
Inquiry: Please report IC50 for the following molecule: CCN(CC)CCCC(C)Nc1ccnc2cc(Cl)ccc12 (centres undefined)
Reply text: 1.36

---

// reported IC50 for each item listed
Test system: Plasmodium falciparum
PROTOCOL_DETAILS: Antimalarial activity against Chloroquine-sensitive Plasmodium falciparum D10 assessed as parasite growth inhibition after 72 hrs by lactate dehydrogenase assay
Type: functional, organism-based
EXPERIMENTAL_CONDITIONS: D10, 72 h
Provide the reading as a plain figure in µM.

>>> observed("CCCCNC(=O)[C@H](CC(C)C)NC(=O)[C@@H](NC(=O)c1ccc(Oc2ccc(C(=O)N[C@@H](CC(C)C)C(=O)N[C@@H](C)C(=O)NCCN(CC)CC)cc2)cc1)[C@@H](C)CC")
0.345
>>> observed("CCCCNC(=O)[C@H](CC(C)C)NC(=O)[C@@H](NC(=O)c1ccc(Oc2ccc(C(=O)N[C@@H](CC(C)C)C(=O)N[C@@H](C)C(=O)NCCCNc3ccnc4ccccc34)cc2)cc1)[C@@H](C)CC")
0.063
>>> observed("CCCCNC(=O)[C@H](CC(C)C)NC(=O)[C@@H](NC(=O)c1ccc(Oc2ccc(C(=O)N[C@@H](C)C(=O)NCCCNc3ccnc4cc(Cl)ccc34)cc2)cc1)[C@@H](C)CC")
0.043
>>> observed("CCCCNC(=O)[C@H](CC(C)C)NC(=O)c1ccc(Oc2ccc(C(=O)N[C@@H](CC(C)C)C(=O)NCCN(CC)CC)cc2)cc1")
0.357
>>> observed("CCCCNC(=O)[C@H](CC(C)C)NC(=O)[C@@H](NC(=O)c1ccc(Oc2ccc(C(=O)N[C@H](C(=O)N[C@@H](CC(C)C)C(=O)NCCCC)[C@@H](C)CC)cc2)cc1)[C@@H](C)CC")
1.98

Inquiry: Provide only the value of recorded IC50 for CCCCNC(=O)[C@H](CC(C)C)NC(=O)[C@@H](NC(=O)c1ccc(Oc2ccc(C(=O)N[C@@H](CC(C)C)C(=O)NCCCN(CC)CC)cc2)cc1)[C@@H](C)CC
Reply text: 0.121

Inquiry: Quick one: give measured IC50 for CCCCNC(=O)[C@H](CC(C)C)NC(=O)[C@@H](NC(=O)c1ccc(Oc2ccc(C(=O)N[C@@H](CC(C)C)C(=O)N[C@@H](C)C(=O)NCCCC(C)Nc3cc(OC)cc4cccnc34)cc2)cc1)[C@@H](C)CC (stereo partly drawn)
Reply text: 0.037

---

PROTOCOL_DETAILS: Therapeutic index, ratio of IC50 for human fibroblasts to IC50 for Chloroquine-resistant Plasmodium falciparum W2
EXPERIMENTAL_CONDITIONS: read-out: Ratio IC50
PARAMETER_MEASURED: selectivity ratio
Give your answer as a number; write no unit.

Inquiry: Find the measured selectivity ratio of CCCCNC(=O)[C@H](CC(C)C)NC(=O)[C@@H](NC(=O)c1ccc(Oc2ccc(C(=O)N[C@@H](C)C(=O)NCCCNc3ccnc4cc(Cl)ccc34)cc2)cc1)[C@@H](C)CC and report it.
Reply text: 450
